target: HiBit-BRM fusion protein (Homo sapiens, UniProt P51531); construct: expressed in transfected cells; assay: HiBiT-BRM cell-based degradation assay (Nano-Glo HiBiT Lytic Detection, 24 h); settings: HeLa cells expressing HiBiT-BRM, read-out: BRM HiBit Degradation IC50
Sequence (P51531 whole entry, the tested form may be a part): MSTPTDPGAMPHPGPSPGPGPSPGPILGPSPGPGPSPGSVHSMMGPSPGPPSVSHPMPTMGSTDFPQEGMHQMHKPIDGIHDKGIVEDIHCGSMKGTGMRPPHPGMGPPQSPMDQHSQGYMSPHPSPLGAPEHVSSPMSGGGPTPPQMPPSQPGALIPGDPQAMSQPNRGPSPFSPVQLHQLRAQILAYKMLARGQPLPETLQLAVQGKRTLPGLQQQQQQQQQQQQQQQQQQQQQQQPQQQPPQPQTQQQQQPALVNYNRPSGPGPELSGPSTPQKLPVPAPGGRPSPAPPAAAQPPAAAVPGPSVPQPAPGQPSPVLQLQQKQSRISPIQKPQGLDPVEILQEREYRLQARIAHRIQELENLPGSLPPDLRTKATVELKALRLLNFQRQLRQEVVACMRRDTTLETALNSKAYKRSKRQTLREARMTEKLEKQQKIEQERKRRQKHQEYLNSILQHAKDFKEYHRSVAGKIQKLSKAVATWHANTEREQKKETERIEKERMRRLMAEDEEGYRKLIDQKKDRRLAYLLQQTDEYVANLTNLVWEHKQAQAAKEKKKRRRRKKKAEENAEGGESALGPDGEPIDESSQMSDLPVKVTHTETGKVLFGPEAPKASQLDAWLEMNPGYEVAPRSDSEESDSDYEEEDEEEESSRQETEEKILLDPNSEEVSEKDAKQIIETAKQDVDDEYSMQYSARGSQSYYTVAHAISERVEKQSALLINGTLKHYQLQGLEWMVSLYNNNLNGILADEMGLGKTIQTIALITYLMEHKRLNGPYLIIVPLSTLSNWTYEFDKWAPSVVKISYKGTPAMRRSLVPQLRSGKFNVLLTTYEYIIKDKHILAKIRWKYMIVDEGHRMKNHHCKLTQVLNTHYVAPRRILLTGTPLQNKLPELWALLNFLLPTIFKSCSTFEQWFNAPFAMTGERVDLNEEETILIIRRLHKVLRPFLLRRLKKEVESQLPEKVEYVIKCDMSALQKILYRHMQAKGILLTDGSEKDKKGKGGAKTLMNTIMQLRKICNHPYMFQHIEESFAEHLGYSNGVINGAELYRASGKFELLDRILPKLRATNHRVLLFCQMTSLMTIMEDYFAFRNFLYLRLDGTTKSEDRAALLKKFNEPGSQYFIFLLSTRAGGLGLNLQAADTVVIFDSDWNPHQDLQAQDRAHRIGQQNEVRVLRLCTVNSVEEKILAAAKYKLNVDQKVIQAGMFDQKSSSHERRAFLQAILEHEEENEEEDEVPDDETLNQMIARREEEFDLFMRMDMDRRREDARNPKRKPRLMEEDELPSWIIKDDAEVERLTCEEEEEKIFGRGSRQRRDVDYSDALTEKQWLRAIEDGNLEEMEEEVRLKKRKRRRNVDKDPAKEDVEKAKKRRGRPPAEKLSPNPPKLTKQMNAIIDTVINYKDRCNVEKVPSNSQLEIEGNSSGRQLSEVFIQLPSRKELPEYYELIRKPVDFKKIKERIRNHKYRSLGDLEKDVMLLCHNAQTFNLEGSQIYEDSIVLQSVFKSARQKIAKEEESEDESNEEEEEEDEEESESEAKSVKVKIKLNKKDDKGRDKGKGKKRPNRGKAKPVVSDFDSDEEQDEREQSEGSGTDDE
outcome-measure: DC50

// worked examples, DC50 included
Entry CS(=O)(=O)n1ccc(C(=O)NCC(=O)Nc2nc(-c3cccc(-c4cccc(CNC(=O)CCCOc5cccc6c5C(=O)N(C5CCC(=O)NC5=O)C6=O)c4)c3)cs2)c1 (centres unmarked) , DC50 reported as > 10 µM

// sample CS(=O)(=O)n1ccc(C(=O)N[C@@H](COCc2ccc(C(=O)NCCC3CCN(c4ccc5c(c4)C(=O)N(C4CCC(=O)NC4=O)C5=O)CC3)cc2)C(=O)Nc2nc(-c3ccccc3)cs2)c1 (some centres unmarked) , its DC50 was < 0.1 µM

The molecule identified as CS(=O)(=O)n1ccc(C(=O)N[C@@H](COCc2ccc(C(=O)NCCOCCOCCNC(=O)COc3ccc4c(c3)C(=O)N(C3CCC(=O)NC3=O)C4=O)cc2)C(=O)Nc2nc(-c3ccccc3)cs2)c1 (some centres unmarked) registered its DC50 at > 10 µM

Query CS(=O)(=O)n1ccc(C(=O)N[C@@H](CCOCCCC(=O)N2CCN(CC3CN(c4ccc5c(c4)C(=O)N(C4CCC(=O)NC4=O)C5=O)C3)CC2)C(=O)Nc2nc(-c3ccccc3)cs2)c1 (some centres unmarked) yields DC50 of > 10 µM

Turning now to a further record.
Looking up CS(=O)(=O)n1ccc(C(=O)NCC(=O)Nc2nc(-c3cccc(-c4cccc(CNC(=O)CCCCCCCCNc5ccc6c(c5)C(=O)N(C5CCC(=O)NC5=O)C6=O)c4)c3)cs2)c1 (centres unmarked) , I see its DC50 listed as > 10 µM
